Assay: MM1S cell viability effects, profiling panel, calcein-AM fluorescence, 48 h, basal (AID 1165);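 also: viability of MM1S multiple myeloma cells under basal unstimulated conditions; test concentration not given here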
Conditions: higher = more signal
The entries below are paired with their reported z-score.
Output spec: single numeric token, no unit.

Sample records with z-score:
O=C1C[C@@](C(=O)NCCN2CCOCC2)(c2ccc([N+](=O)[O-])cc2)[C@@H](c2ccc(CO)cc2I)N1CC12CC3CC(CC(C3)C1)C2 :: -3.86
CO[C@H]1O[C@H](CO)[C@@H](OC(=O)Nc2cccc(F)c2)[C@H](OC(=O)Nc2ccccc2)[C@@H]1OC(=O)Nc1ccccc1 :: -3.43
CCOC(=O)C[C@H]1[C@H](OC(=O)c2ccc(C(=O)c3ccccc3)cc2)[C@@H](NC(=O)c2ccc3ccccc3c2)c2cc(OCCCO)ccc2N1C(=O)Cc1ccc(OC)cc1 :: 0.655
C=C(CCCC)/C(=C/C[C@H](OC(C)=O)c1ccccc1OCCO)c1cc(C(=O)OC)ccc1OC :: -1.36
Cc1ccc(S[C@]2(C(=O)O)CC(=O)N(C(C)C)[C@@H]2c2ccc(CO)cc2I)cc1 :: -2.36

Dear colleague, I am looking for the recorded z-score of the following compound: "CN(C)CCCCCCNC(=O)[C@H]1C[C@H]2C(=O)N3CCC[C@H]3C(=O)N2[C@H]1c1ccc(O)cc1"
-0.567

Queued: "CCS[C@H]1[C@@H](C(=O)O)[C@H](c2ccc(C)cc2)N(S(=O)(=O)c2ccc(C)cc2)[C@@H]1CC"
0.412

Queued: "C[N+](C)(C)CCCCNC(=O)[C@@H]1C[C@@H]2C(=O)N[C@@H](Cc3ccccc3)C(=O)N2[C@@H]1c1cccc(OCCO)c1"
0.367

Queued: C=CCC(OC(C)=O)[C@@H]1[C@@H](N(Cc2ccc(-c3ccccc3)cc2)C(=O)Cc2ccc(OC)cc2)c2cc(OCCCO)ccc2N1C(=O)Cc1ccc2ccccc2c1 (stereo partly drawn)
-0.391

Queued: "COc1ccc([Si](C)(C)[C@H]2[C@H](CCO)O[C@@]3(C(=O)N(Cc4ccc(N(C=O)c5ccccc5)cc4)c4ccccc43)[C@@H]2C)cc1"
-1.48

Queued: "COc1ccc(C#Cc2ccc3c(c2)[C@]2(C(=O)N3)[C@H](C(=O)Nc3nc4ccccc4s3)[C@H]3C(=O)O[C@H](c4ccccc4)[C@H](c4ccccc4)N3[C@@H]2c2ccc(O)cc2)cc1"
-0.561

Queued: "O=C1O[C@H](c2ccccc2)[C@H](c2ccccc2)N2[C@H]1[C@@H](C(=O)N1CCCCCCC1)[C@]1(C(=O)Nc3ccc(C#CC4=CCCCC4)cc31)[C@H]2c1ccc(OCCO)cc1"
-0.0425

Queued: "COc1ccc(C(=O)Nc2ccc(CN3C(=O)[C@]4(O[C@H](CCO)[C@@H]([Si](C)(C)c5ccc(OC)cc5)[C@@H]4C)c4ccccc43)cc2)cc1"
-2.62

Queued: "C=C(CCCC)/C(=C/C[C@@H](OC(C)=O)c1ccc(OCCO)cc1)c1cnc2ccccc2c1"
-1.27

Queued: "CCCC#C[Si](O[C@H](CC)c1cn(Cc2cccc(Cl)c2)nn1)(C(C)C)C(C)C"
-1.07

Queued: O=C1C2C=CC(C(O)c3cc(C(F)(F)F)cc(C(F)(F)F)c3)N(n3cnnc3)C2C(=O)N1Cc1ccccc1 (stereo not drawn)
0.0347

Queued: "CN(C)CCCCCCNC(=O)[C@H]1C[C@H]2C(=O)N[C@@H](CCCCN)C(=O)N2[C@H]1c1cccc(OCCO)c1"
-0.371

Queued: "C=C[C@H](C)[C@@H](OC(=O)Nc1ccc(OC)cc1)c1ccc(O)c2ccccc12"
-2.78

Queued: COc1cc(Br)cc(C(O)C2C=CC3C(=O)N(C)C(=O)C3N2N2CCCCC2)c1OC (stereo not drawn)
-1.68

Queued: O=C1NC(=O)C2C1C=CC(C(O)c1cccs1)N2Nc1ccc(Cl)cc1Cl (stereo not drawn)
-1.71

Queued: "C=CCOC(=O)[C@H]1[C@@H]2C(=O)O[C@@H](c3ccccc3)[C@@H](c3ccccc3)N2[C@@H](c2ccc(OCCOC(=O)[C@@H]3C[C@@H]4C(=O)N[C@@H](CC(C)C)C(=O)N4[C@@H]3c3ccc(O)cc3)cc2)[C@]12C(=O)Nc1ccccc12"
-0.206

Queued: "CCOC(=O)C[C@H]1[C@H](OC(=O)c2cc3ccccc3oc2=O)[C@@H](NC(=O)c2ccccc2)c2cc(OCCCO)ccc2N1C(=O)c1ccc2ccccc2n1"
-0.0357

Queued: "COC(=O)[C@]1(CCC(=O)OC(C)(C)C)N=C(c2ccc(OCCCO)cc2)O[C@@H]1c1ccccc1CN=[N+]=[N-]"
-3.55

Queued: "C=C(COC)/C(=C/C[C@@H](OC(=O)c1ccncc1)c1ccc(CO)o1)c1cc(C(=O)OC)ccc1OC"
-0.761
